System: PC-3 prostate
Experiment: NCI-60 one-dose screen, 48 h
Details: 10 µM unless noted
The panel holds about 83,000 compounds, 20% with a hit somewhere; the sample as a whole holds those more often. Activity calls are given as the source filed them. The calls were made as follows: active = growth percent below 10; inactive = the rest.
Your reply should match one of these outcome classes. active, inactive

What outcome does the record of this test show for COc1ccc(-c2cc3c(OC)c(OC)c(OC)cc3oc2=O)cc1 ?
inactive

Others:
Name the outcome recorded for C=C1C(=O)O[C@H]2[C@H]1CC/C(Cn1cc(-c3cccc(Cl)c3)nn1)=C\CC[C@@]1(C)O[C@@H]21 in the assay.
active

Short answer needed: outcome of this test for CN(C)c1ncnc2c1ccn2C1OC(CO)C(O)C1O (stereo not given) ?
inactive

Dear all, I need the recorded test outcome for NC1=C(/C(N)=N/O)C(c2ccccc2)c2ccc3ccccc3c2O1 (stereo not given) , thank you.
inactive

Hi, sorry to bother you, what did the test record for O=Nc1c(-c2cccc([N+](=O)[O-])c2)nc2ncccn12 ?
inactive
